# Test system: SNB-19 CNS
# test.summary: NCI tumour cell line growth inhibition, 48 h
Listing: TGI of selected molecules

The examples below pair each entry with its known result.
molecule | test.target | reported.result
O=C(O)C1=C(C(=O)Nc2ccccc2)C2C=CC1C2 (configuration not stated) | SNB-19 CNS | > 100 µM
CCCCOCn1c(=O)[nH]c(=O)c2ccccc21 | SNB-19 CNS | 55.5 µM
Cc1c(-c2ccccc2)c(=O)oc2ccc(Cl)cc12 | SNB-19 CNS | > 100 µM
CCN(CC)CCCC(C)Nc1cc(-c2ccc(C(F)(F)F)cc2)c(C#N)c2nc3ccccc3n12 (configuration not stated) | SNB-19 CNS | 11.1 µM
COc1c2ccoc2cc2oc(=O)ccc12 | SNB-19 CNS | > 100 µM

The reported TGI of the molecule `CC1=CC=C2c3ccccc3C=CN2C(=O)C1` was > 100 µM

Form: molecule = `Cc1ccc2nc(N/N=C/c3ccc(C)s3)cc(C)c2c1` ; TGI = 27.2 µM

Kindly note the recorded TGI for `O=C1C=CC(=O)c2c1cc([N+](=O)[O-])c1ccoc21` , which is 39.6 µM

Noted for `NC(=O)C1c2ccccc2C=Cc2ccccc21` : its TGI reads > 100 µM

# TGI of `O=C(N/N=C/c1ccccc1O)C(O)(c1ccccc1)c1ccccc1` = > 100 µM

molecule `O=C(Cc1nc2ccccc2s1)Nc1ccc(Cl)cc1` , TGI observed: > 100 µM

get_value(item= `O=c1c(-c2ccccc2)c2oc(c1-c1ccccc1)CS(=O)(=O)CCC2` , readout=TGI) returns > 100 µM

* * *

# System: TK-10 renal
# test.summary: NCI tumour cell line growth inhibition, 48 h; in the data active = GI50 below about 0.43 µM; inactive = the rest
# valid calls are active, inactive; nothing else

Past entries and their recorded results:
compound | test.target | class.assignment
NC(=NCCCC1(c2ccccc2)CCCC1)Nc1ccc(Cl)cc1 | TK-10 renal | inactive
C[C@@H](N)C1CCC(C(=O)Nc2ccncc2)CC1 (stereo partly drawn) | TK-10 renal | inactive

Next compound, please.
## Input Look up the recorded call for `COC(=O)[C@H]1[C@@H](O)[C@@]2(O)c3c(OC)cc(O[C@@H]4O[C@@H]([C@H](O)CO)CO[C@H]4OC)cc3O[C@@]2(c2ccc(OC)cc2)[C@@H]1c1ccccc1` in this test.
## Output active

* * *

# Tested on: TK-10 renal
# test.summary: NCI tumour cell line growth inhibition, 48 h; in the data active = GI50 below about 0.43 µM; inactive = the rest
The categories you may choose from are Yes = active, No = inactive

molecule | class.assignment
COc1cc(-c2nc(NC(C)=O)sc2-c2ccnc(NCCNS(=O)(=O)c3ccccc3)n2)ccc1Cl | No

## Input Assay result, entry `Cc1cc(C(=O)Nc2nc3cccc(Cl)c3n2[C@@H]2CCCCN(C(=O)/C=C/CN(C)C)C2)ccn1` — outcome?
## Output No

## Input Please indicate how the test categorized `CN[C@@H](C)C(=O)N[C@H]1CN(C(=O)CC(C)C)CC[C@H]2CC[C@@H](C(=O)NC(c3ccccc3)c3ccccc3)N2C1=O` .
## Output No

* * *

# System: SF-539 CNS
# test.summary: NCI tumour cell line growth inhibition, 48 h
Overview of reported TGI across a group of compounds:

Sample `CN(C)C(=S)N1C(=S)N(c2ccccc2)C(=Nc2ccccc2)C1=Nc1ccccc1` ; TGI observed: > 100 µM

* * *

# Test system: TK-10 renal
# test.summary: NCI tumour cell line growth inhibition, 48 h
Where a SMILES comes first, the peptide text is derived from it. Bridges are numbered along the chain shown (N, C = ends). [ ]: non-standard residue; d: D form. The star is where a group is joined. PhAc = O=C(Cc1ccccc1)*
Below is a list of entries, each paired with its recorded TGI value.

Examples from the recorded data:
compound | TGI
Cc1ccc(S(=O)(=O)Oc2ccc([N+](=O)[O-])cc2[N+](=O)[O-])cc1 | 17.4 µM
Cc1nc2c(O)cc3c4c(=O)n(C)c(=O)n(C)c4n(Cc4ccccc4)c3c2nc1C | 38.4 µM
Cc1ccc2c3c(cnc2n1)C(=O)OCCN3C | > 100 µM
COc1cccc(NC(=O)C(C)(C)C)c1C=O | > 100 µM
C#Cc1c(C)c(/C=C/C(C)=C/C=C/C(C)=C/C(=O)OC)n(C)c1C | > 100 µM
Cc1n[n+](CC(=O)c2ccccc2)c2sc(N)nn12 | > 100 µM
COc1c(C)c2c(c3c1c(=O)c1ccccc1n3C)C=CC(C)(C)O2 | > 100 µM
CN(C)CC1CCCC(CN2CCCCC2)C1=O (stereo unspecified) | 21.3 µM
Cc1nn2c(=O)c([N+](=O)[O-])c(/C=C/c3ccco3)nc2s1 | > 100 µM
CCCCCCCCCCCCNC(=O)[C@H]1CSC(c2cc3ccccc3s2)N1 (stereo partly specified) | 4.88 µM

Record `c1ccc(CSc2ccccc2CN2CCN(Cc3ccccc3SCc3ccccc3)CCN(Cc3ccccc3SCc3ccccc3)CC2)cc1` , field TGI: 5.72 µM

Per the record, `C/C1=C/C(=O)O[C@@H]2C[C@@H](CC[C@H](C)/C=C\C=C\CC1)O[C@@](O)([C@@H]1CSC(=O)N1CO)C2` has TGI of 0.341 µM

TGI reported for this compound O=C(Cc1ccccc1)N[C@@H]1COC(=O)[C@@H]2CCCN2C(=O)[C@@H]2CCCN2C1=O (PhAc-[dS]-Pro-Pro; ester 1-C) : > 100 µM

Documented TGI of `CCCCOCn1c(=O)[nH]c(=O)c2ccccc21` : > 100 µM

The recorded TGI for `NC(=O)/C(=C\c1ccncc1)c1cccc2ccccc12` is > 100 µM

// TGI lookup, compound = `Cc1c(C#N)c(N)[nH]c(=S)c1C#N` , result: > 100 µM

* * *

Parameter TGI: see the listing below.
# Test system: SF-539 CNS
# test.summary: NCI tumour cell line growth inhibition, 48 h
Report the value in µM with no unit label.

compound | test.target | TGI / µM
Cc1nnc2sc(Cl)nn12 | SF-539 CNS | 47.1

Record `Cc1cc(C(=O)Nc2nc3cccc(Cl)c3n2[C@@H]2CCCCN(C(=O)/C=C/CN(C)C)C2)ccn1` ; system SF-539 CNS; TGI = 29.5

Lab note: compound `O=C(/C=C/c1ccc(O)c(O)c1)OCc1ccccc1` tested on SF-539 CNS; recorded TGI was 24.5

Bench note, SF-539 CNS: entry `COc1ccc(/C=N/N=C(\N)NO)c(Cl)c1O` , its TGI = 46.5

Reading of TGI for `CCOC(=O)Cc1nc2ccccc2s1` with SF-539 CNS: 36.6

`CC(C)CCSC1=CC(=O)c2ccccc2C1=O` tested on SF-539 CNS gave TGI: 22.7

Record `Oc1cccc(-c2ccc3c4c2O[C@H]2c5[nH]c6ccccc6c5C[C@@]5(O)[C@@H](C3)N(CC3CC3)CC[C@]425)c1` / SF-539 CNS, TGI recorded as 3.14

Query `Cc1nc2ccccn2c1NC(=O)NNC(=S)Nc1ccc(Br)cc1` on SF-539 CNS; TGI returned: 55.2

I looked up CN(C)CC1CCCC(CN2CCCCC2)C1=O (configuration not stated) and its TGI for SF-539 CNS was 33.6

* * *

# System: LOX IMVI melanoma
# test.summary: NCI tumour cell line growth inhibition, 48 h
Quick reference for TGI among some compounds

The cases that follow already have their TGI on record.
compound | reported.result
C=CCCCn1ccc2ccccc21 | > 100 µM
COc1cc(C2SCC(=O)N2Cc2ccccc2)cc(OC)c1OC (stereo unspecified) | > 100 µM
COc1cc(Br)c(CC2(C#N)c3ccccc3C3C(N2C(=O)c2ccccc2)C3(Cl)Cl)cc1OC (stereo unspecified) | > 65.5 µM
NC(=O)NC(=O)CCC(NS(=O)(=O)c1ccccc1)C(=O)NC(N)=O (stereo unspecified) | > 100 µM
O=C(CCCCCCCn1cc(-c2cccnc2)nn1)Nc1ccccc1-c1ccccc1 | > 100 µM

Read the next record carefully.
Lookup result for `Cc1nnc(N=Nc2c(O)[nH]c3c(Cl)cc(Cl)cc23)n1N` ; measured TGI: > 100 µM

* * *

# TGI annotations
# System: A549 NSCLC
# test.summary: NCI tumour cell line growth inhibition, 48 h

Example compounds with recorded TGI:
compound | TGI
O=C1Oc2ccccc2C(=O)/C1=C/N1C(=O)/C(=C/c2ccc3c(c2)OCO3)SC1=S | 35.4 µM
COc1cccc(NC(=O)C(C)(C)C)c1C=O | > 100 µM
Cc1ccc(-c2cc(-c3ccc(Cl)cc3)nc(/N=C3\C(=O)N(CN4CCOCC4)c4ccccc43)n2)cc1 | 39.7 µM
Cc1ccc2nc(N/N=C/c3ccc(C)s3)cc(C)c2c1 | 21.1 µM
CC1=C(C#N)C23C(=O)c4ccccc4C(O)=C2C(=O)C=CC3(O)N1 (stereo not drawn) | > 100 µM

Reported TGI of `Cc1ccc(S(=O)(=O)N2c3ccccc3[C@H]3CCc4c([nH]c5ccccc45)[C@H]32)cc1` : > 100 µM

For record `O=C1CCCC2=C1CC1=C(CCCC1=O)N2c1ccccc1C(=O)O` the listed TGI is > 100 µM

Lookup result for `O=C(CSc1nc2ccccc2nc1-c1ccccc1)Nc1ccc(Cl)cc1` ; measured TGI: > 100 µM

For reference, reported TGI for C=C[C@]1(O)CCC[C@]2(C)C(=O)CCC12C (stereo partly drawn) stands at > 100 µM
